Just for reference, ChEMBL document CHEMBL4190191 is where these values come from.

Test system: A549
Assay: Cytotoxicity against human A549 cells at 10 to 100 uM by MTT assay
Type: cell-based
Conditions: a549, 100 µM
MEASURED PROPERTY: Activity

Sample records with Activity:
Input: Data request, read-out Activity, for COC(=O)CC(O)(CC(=O)OC)C(=O)OC
Output: Non-Toxic

Input: Data request, read-out Activity, for COC(=O)CC(O)(CC(=O)O)C(=O)O (stereo not drawn)
Output: Non-Toxic

Input: Data request, read-out Activity, for O=C1CCc2ccc(O)c(c2)-c2cc(ccc2O)C[C@@H](O)[C@H](O)[C@H]1O (mixture of isomers)
Output: Non-Toxic

Input: Data request, read-out Activity, for C[C@@H]1O[C@@H](Oc2c(-c3ccc(O)cc3)oc3cc(O)cc(O)c3c2=O)[C@H](O)[C@H](O)[C@H]1O
Output: Non-Toxic

Continuing:
Input: Data request, read-out Activity, for O=C(O)CC(O)(CC(=O)O)C(=O)O
Output: Non-Toxic

Input: Data request, read-out Activity, for O=C1CCc2ccc(O[C@@H]3O[C@H](CO)[C@@H](O)[C@H](O)[C@H]3O)c(c2)-c2cc(ccc2O)C[C@@H](O)[C@H](O)[C@H]1O (mixture of isomers)
Output: Non-Toxic

Input: Data request, read-out Activity, for O=C1Cc2ccc(O)c(c2)-c2cc(ccc2O)C[C@@H](O)[C@@H](O)[C@@H](O)[C@H]1O (mixture of isomers)
Output: Non-Toxic

Input: Data request, read-out Activity, for C[C@@H]1O[C@@H](Oc2c(-c3cc(O)c(O)c(O)c3)oc3cc(O)cc(O)c3c2=O)[C@H](O)[C@H](O)[C@H]1O
Output: Non-Toxic

###

Tested on: Escherichia coli
Assay: Antimicrobial activity against Escherichia coli DSM 8579 assessed as growth inhibition at 10 ug per disc after 24 to 48 hrs (reference value: 0 millimeter)
Assay type: functional
Conditions: read-out: DIZ
MEASURED PROPERTY: zone of inhibition at 10 µg/disc
Value and unit, in that order.

Sample records with zone of inhibition at 10 µg/disc:
Input: Data request, read-out zone of inhibition at 10 µg/disc, for O=C1CCc2ccc(O[C@@H]3O[C@H](CO)[C@@H](O)[C@H](O)[C@H]3O)c(c2)-c2cc(ccc2O)C[C@@H](O)[C@H](O)[C@H]1O (mixture of isomers)
Output: 0 mm

Input: Data request, read-out zone of inhibition at 10 µg/disc, for O=C1Cc2ccc(O)c(c2)-c2cc(ccc2O)C[C@@H](O)[C@@H](O)[C@@H](O)[C@H]1O (mixture of isomers)
Output: 4.67 mm

Input: Data request, read-out zone of inhibition at 10 µg/disc, for C[C@@H]1O[C@@H](Oc2c(-c3ccc(O)cc3)oc3cc(O)cc(O)c3c2=O)[C@H](O)[C@H](O)[C@H]1OC(=O)/C=C/c1ccc(O)cc1
Output: 3 mm

--- query ---
Input: Data request, read-out zone of inhibition at 10 µg/disc, for O=C1CCc2ccc(O)c(c2)-c2cc(ccc2O)C[C@@H](O)[C@H](O)[C@H]1O (mixture of isomers)
Output: 9.33 mm

###

System: Bacillus cereus
Assay: Antimicrobial activity against Bacillus cereus DSM 4384 assessed as growth inhibition at 10 ug per disc after 24 to 48 hrs (reference value: 0 millimeter)
Assay type: functional
Settings: read-out: DIZ
MEASURED PROPERTY: zone of inhibition at 10 µg/disc (mm)
Use mm as the unit, but write only the number.

Sample records with zone of inhibition at 10 µg/disc:
Input: Data request, read-out zone of inhibition at 10 µg/disc, for O=C1Cc2ccc(O)c(c2)-c2cc(ccc2O)C[C@@H](O)[C@@H](O)[C@@H](O)[C@H]1O (mixture of isomers)
Output: 5.67

Input: Data request, read-out zone of inhibition at 10 µg/disc, for C[C@@H]1O[C@@H](Oc2c(-c3ccc(O)cc3)oc3cc(O)cc(O)c3c2=O)[C@H](O)[C@H](O)[C@H]1OC(=O)/C=C/c1ccc(O)cc1
Output: 5

Input: Data request, read-out zone of inhibition at 10 µg/disc, for O=C1CCc2ccc(O)c(c2)-c2cc(ccc2O)C[C@@H](O)[C@H](O)[C@H]1O (mixture of isomers)
Output: 5

--- query ---
Input: Data request, read-out zone of inhibition at 10 µg/disc, for O=C1CCc2ccc(O[C@@H]3O[C@H](CO)[C@@H](O)[C@H](O)[C@H]3O)c(c2)-c2cc(ccc2O)C[C@@H](O)[C@H](O)[C@H]1O (mixture of isomers)
Output: 0
